tested on: common cocklebur (Xanthium strumarium L.); experiment: Preemergence herbicidal activity, cocklebur; format: in vivo; conditions: Xanthium strumarium, pre-emergence, Rate of Application 0.3 Kg/Ha, examined after 12-17 days, read-out: PREEMERGENCE HERBICIDAL ACTIVITY (% CONTROL) XANPE
assayMetric: inhibition at 300 g/ha
# number then unit; no other words

query: Requested read-out: inhibition at 300 g/ha. Entry: Cn1c(C(F)(F)F)cc(=O)n(-c2c(F)cc(Cl)c3[nH]c(C(C)(C)C)nc23)c1=O
result: 100%

query: Requested read-out: inhibition at 300 g/ha. Entry: CC(C)c1nc2c(-n3c(=O)cc(C(F)(F)F)n(C)c3=O)c(F)cc(Cl)c2o1
result: 100%

query: Requested read-out: inhibition at 300 g/ha. Entry: CCc1nc2c(-n3c(=O)cc(C(F)(F)F)n(C)c3=O)c(F)cc(Cl)c2[nH]1
result: 100%

query: Requested read-out: inhibition at 300 g/ha. Entry: COc1nc2c(-n3c(=O)cc(C(F)(F)F)n(C)c3=O)c(F)cc(Br)c2o1
result: 100%

query: Requested read-out: inhibition at 300 g/ha. Entry: CC(=O)OC(C)(C)c1nc2c(-n3c(=O)cc(C(F)(F)F)n(C)c3=O)c(F)cc(Br)c2o1
result: 100%

query: Requested read-out: inhibition at 300 g/ha. Entry: Cn1c(C(F)(F)F)cc(=O)n(-c2c(F)cc(Cl)c3[nH]c(C(F)(F)F)nc23)c1=O
result: 100%

query: Requested read-out: inhibition at 300 g/ha. Entry: Cn1c(C(F)(F)F)cc(=O)n(-c2c(F)cc(Cl)c3[nH]c(C(F)(F)F)cc23)c1=O
result: 100%

* * *

Task for the reader: assign each of the following compounds its reported PREEMERGENCE HERBICIDAL ACTIVITY (% CONTROL) IPOSS.
test system: morningglory (Ipomea lacunosa or Ipomea hederacea); test: Preemergence herbicidal activity, morningglory; assay type: in vivo; settings: Rate of Application 0.3 Kg/Ha, examined after 12-17 days
Give just the numeric value; % need not be written.

query: Requested read-out: PREEMERGENCE HERBICIDAL ACTIVITY (% CONTROL) IPOSS. Entry: Cn1c(C(F)(F)F)cc(=O)n(-c2c(F)cc(Br)c3oc(COc4ccccc4)nc23)c1=O
result: 100

query: Requested read-out: PREEMERGENCE HERBICIDAL ACTIVITY (% CONTROL) IPOSS. Entry: C=CCOc1nc2c(-n3c(=O)cc(C(F)(F)F)n(C)c3=O)c(F)cc(Br)c2o1
result: 90

query: Requested read-out: PREEMERGENCE HERBICIDAL ACTIVITY (% CONTROL) IPOSS. Entry: C=Cc1cc2c(Cl)cc(F)c(-n3c(=O)cc(C(F)(F)F)n(C)c3=O)c2o1
result: 100

query: Requested read-out: PREEMERGENCE HERBICIDAL ACTIVITY (% CONTROL) IPOSS. Entry: CC(C)c1nc2c(-n3c(=O)cc(C(F)(F)F)n(C)c3=O)c(F)cc(Cl)c2[nH]1
result: 100

query: Requested read-out: PREEMERGENCE HERBICIDAL ACTIVITY (% CONTROL) IPOSS. Entry: Cn1c(C(F)(F)F)cc(=O)n(-c2ccc(Cl)c3cc(C(Br)Br)oc23)c1=O
result: 95

query: Requested read-out: PREEMERGENCE HERBICIDAL ACTIVITY (% CONTROL) IPOSS. Entry: Cn1c(C(F)(F)F)cc(=O)n(-c2ccc(Cl)c3cc(C(N)=O)oc23)c1=O
result: 100

query: Requested read-out: PREEMERGENCE HERBICIDAL ACTIVITY (% CONTROL) IPOSS. Entry: Cn1c(C(F)(F)F)cc(=O)n(-c2ccc(Cl)c3cc(-c4ccccc4)oc23)c1=O
result: 0

query: Requested read-out: PREEMERGENCE HERBICIDAL ACTIVITY (% CONTROL) IPOSS. Entry: Cc1nc2c(-n3c(=O)cc(C(F)(F)F)n(N)c3=O)c(F)cc(Cl)c2o1
result: 100

* * *

test system: soybean (Glycine max var. Winchester); assay: Preemergence herbicidal activity, soybean; format: in vivo; conditions: Rate of Application 0.3 Kg/Ha, examined after 12-17 days
Task for the reader: assign each of the following compounds its reported PREEMERGENCE HERBICIDAL ACTIVITY (% CONTROL) SOY.
Give just the numeric value; % need not be written.

query: Requested read-out: PREEMERGENCE HERBICIDAL ACTIVITY (% CONTROL) SOY. Entry: COCOC(C)(C)c1cc2c(Cl)cc(F)c(-n3c(=O)cc(C(F)(F)F)n(C)c3=O)c2o1 [Compound 252]
result: 100

query: Requested read-out: PREEMERGENCE HERBICIDAL ACTIVITY (% CONTROL) SOY. Entry: CC(c1ccccc1)c1nc2c(Cl)cc(F)c(-n3c(=O)cc(C(F)(F)F)n(C)c3=O)c2[nH]1 (stereo not shown) [Compound 377]
result: 100

query: Requested read-out: PREEMERGENCE HERBICIDAL ACTIVITY (% CONTROL) SOY. Entry: COC(=O)Cc1nc2c(-n3c(=O)cc(C(F)(F)F)n(C)c3=O)c(F)cc(Br)c2o1 [Compound 49]
result: 95

query: Requested read-out: PREEMERGENCE HERBICIDAL ACTIVITY (% CONTROL) SOY. Entry: Cn1c(C(F)(F)F)cc(=O)n(-c2c(F)cc(Cl)c3nc(-c4ccccc4)[nH]c23)c1=O [Compound 375]
result: 80

query: Requested read-out: PREEMERGENCE HERBICIDAL ACTIVITY (% CONTROL) SOY. Entry: Cn1c(C(F)(F)F)cc(=O)n(-c2ccc(Cl)c3cc(NC(=O)OC(C)(C)C)oc23)c1=O [Compound 272]
result: 20

query: Requested read-out: PREEMERGENCE HERBICIDAL ACTIVITY (% CONTROL) SOY. Entry: C#CCOc1nc2c(-n3c(=O)cc(C(F)(F)F)n(C)c3=O)c(F)cc(Br)c2o1 [Compound 106]
result: 30

query: Requested read-out: PREEMERGENCE HERBICIDAL ACTIVITY (% CONTROL) SOY. Entry: CCCC(C)c1cc2c(Cl)cc(F)c(-n3c(=O)cc(C(F)(F)F)n(C)c3=O)c2o1 (stereo not shown) [Compound 229]
result: 100

query: Requested read-out: PREEMERGENCE HERBICIDAL ACTIVITY (% CONTROL) SOY. Entry: CCc1nc2c(-n3c(=O)cc(C(F)(F)F)n(C)c3=O)c(F)cc(Cl)c2o1 [Compound 25]
result: 100

query: Requested read-out: PREEMERGENCE HERBICIDAL ACTIVITY (% CONTROL) SOY. Entry: CNC(=O)OC(C)c1cc2c(Cl)cc(F)c(-n3c(=O)cc(C(F)(F)F)n(C)c3=O)c2o1 (stereo not shown) [Compound 249]
result: 100

query: Requested read-out: PREEMERGENCE HERBICIDAL ACTIVITY (% CONTROL) SOY. Entry: Cn1c(C(F)(F)F)cc(=O)n(-c2c(F)cc(Cl)c3cc(C(N)=O)oc23)c1=O [Compound 273]
result: 100

query: Requested read-out: PREEMERGENCE HERBICIDAL ACTIVITY (% CONTROL) SOY. Entry: Cn1c(C(F)(F)F)cc(=O)n(-c2c(F)cc(F)c3cc(C(C)(C)C)oc23)c1=O [Compound 228]
result: 100

query: Requested read-out: PREEMERGENCE HERBICIDAL ACTIVITY (% CONTROL) SOY. Entry: CCCc1nc2c(-n3c(=O)cc(C(F)(F)F)n(C)c3=O)c(F)cc(Cl)c2o1 [Compound 26]
result: 100

query: Requested read-out: PREEMERGENCE HERBICIDAL ACTIVITY (% CONTROL) SOY. Entry: Cn1c(C(F)(F)F)cc(=O)n(-c2c(F)cc(Cl)c3oc(NS(C)(=O)=O)nc23)c1=O [Compound 42]
result: 0

query: Requested read-out: PREEMERGENCE HERBICIDAL ACTIVITY (% CONTROL) SOY. Entry: CC(C)c1cc2c(Cl)cc(F)c(-n3c(=O)cc(C(F)(F)F)n(C)c3=O)c2o1 [Compound 224]
result: 100

query: Requested read-out: PREEMERGENCE HERBICIDAL ACTIVITY (% CONTROL) SOY. Entry: Cn1c(C(F)(F)F)cc(=O)n(-c2c(F)cc(Cl)c3nc(Cc4cccc(Cl)c4)[nH]c23)c1=O [Compound 382]
result: 60

query: Requested read-out: PREEMERGENCE HERBICIDAL ACTIVITY (% CONTROL) SOY. Entry: Cn1c(C(F)(F)F)cc(=O)n(-c2c(F)cc(Cl)c3nc(Cc4ccccc4)[nH]c23)c1=O [Compound 376]
result: 50

query: Requested read-out: PREEMERGENCE HERBICIDAL ACTIVITY (% CONTROL) SOY. Entry: CN(C)C(=O)c1cc2c(Cl)cc(F)c(-n3c(=O)cc(C(F)(F)F)n(C)c3=O)c2o1 [Compound 275]
result: 100

query: Requested read-out: PREEMERGENCE HERBICIDAL ACTIVITY (% CONTROL) SOY. Entry: Cn1c(C(F)(F)F)cc(=O)n(-c2c(F)cc(Cl)c3nc(CCc4ccccc4)[nH]c23)c1=O [Compound 379]
result: 100

query: Requested read-out: PREEMERGENCE HERBICIDAL ACTIVITY (% CONTROL) SOY. Entry: Cn1c(C(F)(F)F)cc(=O)n(-c2ccc(Cl)c3cc(C(C)(C)O)oc23)c1=O [Compound 241]
result: 60

query: Requested read-out: PREEMERGENCE HERBICIDAL ACTIVITY (% CONTROL) SOY. Entry: Cn1c(C(F)(F)F)cc(=O)n(-c2c(F)cc(Cl)c3[nH]c(C(F)F)nc23)c1=O [Compound 364]
result: 100

query: Requested read-out: PREEMERGENCE HERBICIDAL ACTIVITY (% CONTROL) SOY. Entry: CC(O)Cc1cc2c(Cl)cc(F)c(-n3c(=O)cc(C(F)(F)F)n(C)c3=O)c2o1 (stereo not shown) [Compound 243]
result: 100

query: Requested read-out: PREEMERGENCE HERBICIDAL ACTIVITY (% CONTROL) SOY. Entry: Cn1c(C(F)(F)F)cc(=O)n(-c2ccc(Cl)c3cc(C(N)=O)oc23)c1=O [Compound 269]
result: 60

query: Requested read-out: PREEMERGENCE HERBICIDAL ACTIVITY (% CONTROL) SOY. Entry: CC(Cl)c1cc2c(Cl)cc(F)c(-n3c(=O)cc(C(F)(F)F)n(C)c3=O)c2o1 (stereo not shown) [Compound 234]
result: 100

query: Requested read-out: PREEMERGENCE HERBICIDAL ACTIVITY (% CONTROL) SOY. Entry: CCCCc1cc2c(Cl)ccc(-n3c(=O)cc(C(F)(F)F)n(C)c3=O)c2o1 [Compound 225]
result: 40

query: Requested read-out: PREEMERGENCE HERBICIDAL ACTIVITY (% CONTROL) SOY. Entry: Cn1c(C(F)(F)F)cc(=O)n(-c2c(F)cc(Cl)c3cc(C(C)(C)C)oc23)c1=O [Compound 227]
result: 100

query: Requested read-out: PREEMERGENCE HERBICIDAL ACTIVITY (% CONTROL) SOY. Entry: Cn1c(C(F)(F)F)cc(=O)n(-c2c(F)cc(Cl)c3[nH]c(C45CC6CC(CC(C6)C4)C5)nc23)c1=O [Compound 374]
result: 30

query: Requested read-out: PREEMERGENCE HERBICIDAL ACTIVITY (% CONTROL) SOY. Entry: CC(=O)OC(C)c1cc2c(Cl)cc(F)c(-n3c(=O)cc(C(F)(F)F)n(C)c3=O)c2o1 (stereo not shown) [Compound 246]
result: 100

query: Requested read-out: PREEMERGENCE HERBICIDAL ACTIVITY (% CONTROL) SOY. Entry: Cn1c(C(F)(F)F)cc(=O)n(-c2c(F)cc(Cl)c3oc(N)nc23)c1=O [Compound 38]
result: 60

query: Requested read-out: PREEMERGENCE HERBICIDAL ACTIVITY (% CONTROL) SOY. Entry: CC(OC(=O)c1ccccc1)c1cc2c(Cl)cc(F)c(-n3c(=O)cc(C(F)(F)F)n(C)c3=O)c2o1 (stereo not shown) [Compound 248]
result: 100

query: Requested read-out: PREEMERGENCE HERBICIDAL ACTIVITY (% CONTROL) SOY. Entry: CC(=O)OCCc1cc2c(Cl)cc(F)c(-n3c(=O)cc(C(F)(F)F)n(C)c3=O)c2o1 [Compound 260]
result: 100

query: Requested read-out: PREEMERGENCE HERBICIDAL ACTIVITY (% CONTROL) SOY. Entry: COC(C)(C)c1cc2c(Cl)ccc(-n3c(=O)cc(C(F)(F)F)n(C)c3=O)c2o1 [Compound 251]
result: 90

Reference source: patent US6352958B1
